Target: T1, His6Gal80, P04387
T1 chain: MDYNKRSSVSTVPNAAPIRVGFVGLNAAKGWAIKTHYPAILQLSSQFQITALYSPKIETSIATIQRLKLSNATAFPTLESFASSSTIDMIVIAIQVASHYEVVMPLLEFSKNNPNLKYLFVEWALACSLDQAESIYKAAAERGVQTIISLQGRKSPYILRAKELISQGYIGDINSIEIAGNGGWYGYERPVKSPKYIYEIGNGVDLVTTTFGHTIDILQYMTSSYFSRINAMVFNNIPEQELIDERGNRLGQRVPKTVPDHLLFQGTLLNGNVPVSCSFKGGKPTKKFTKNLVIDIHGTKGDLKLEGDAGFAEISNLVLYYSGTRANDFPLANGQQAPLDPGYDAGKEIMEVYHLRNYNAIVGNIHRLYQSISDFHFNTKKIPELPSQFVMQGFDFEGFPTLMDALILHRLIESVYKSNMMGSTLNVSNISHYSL
Test: fluorescence polarization in solution: fluorescein-labelled peptide titrated with Gal80 protein
Quantity: Kd (nM)

# Binder, Quantity, Value Unit, Recorded Result
data = [
    ("YDQDMQNNTFDDLFWKEGHR (modifications not checked) [Gal80bp]", "Kd", "nM", 200),
]
